- Protocol Text: NCI Yeast Anticancer Drug Screen. Data for the sgs1 mgt1 strain (AID 161);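 note: 0% = growth of cultures given vehicle only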
- Condition Description: S. cerevisiae sgs1 mgt1 strain, at 5.0 µM (retest, dose inferred, filed as 0.5)
- Experimental: Growth inhibition of yeast strains with defined genetic alterations is measured as a screen for potential anti-cancer activity. Selected strains with alterations in DNA damage repair or cell cycle control were exposed to compounds and growth inhibition was measured relative to vehicle treated controls. The strain used in this assay is sgs1 mgt1
About 79,000 compounds went through this panel and 15% of them were active in at least one assay; those are over-represented in the sample as a whole. The source made the active and inactive calls. Cut-off read from the data, not from the text of the source: active = growth inhibition above about 70%; inactive = the rest.
The reply should be one of these categories: Y = active, N = inactive

Compound	Answer Label
ClCCN(CCCl)c1ccc(C2N(Cc3ccc(Cl)cc3)CCN2Cc2ccc(Cl)cc2)cc1	N

What did the test return for CC1=C(N2CC2)C(=O)c2nc3n(c2C1=O)CCC3OC(=O)CCl (stereo not given) ? N

What did the test return for CC(C=O)[Se]c1ccccc1 (stereo not given) ? N

What did the test return for C[AsH](C)CC[AsH](C)C.C[AsH](C)CC[AsH](C)C.C[AsH](C)CC[AsH](C)C.[Ni] ? Y

* * *

- Protocol Text: NCI Yeast Anticancer Drug Screen. Data for the rad50 strain (AID 155);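 note: 0% = growth of vehicle-only cultures of the same strain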
- Condition Description: S. cerevisiae rad50 strain growth inhibition; at 50.0 µM (retest, dose inferred, filed as 5.0); active compounds read high
This is part of a sample that, as a whole, favours compounds with a hit. Of some 79,000 tested, about 15% had one in any assay.
Observation Type: growth inhibition (%)
Field: numeric (%). Do not append units.

Some solved entries appear below for comparison.
Compound	Observation Type	Value Measured
[C-]#[O+].[C-]#[O+].[C-]#[O+].[C-]#[O+].[C-]#[O+].[Mo+2].[Mo+4].[c-]1[c-][c-][cH-][c-]1.[c-]1[c-][c-][cH-][c-]1.c1ccc([PH+](CC[PH+](c2ccccc2)c2ccccc2)c2ccccc2)cc1	growth inhibition	98
O=C(CBr)OCC(Br)CBr (centres undefined)	growth inhibition	39
COc1ccccc1C(Cc1ccc(N2C(N)=NC(N)=NC2(C)C)cc1)C(=O)Nc1ccc(S(=O)(=O)F)cc1 (centres undefined)	growth inhibition	15

Need growth inhibition of CCCCCCCCCCCCCC(=O)[O][Hg][c]1ccccc1 , thanks. 93

* * *

- Protocol Text: NCI Yeast Anticancer Drug Screen. Data for the rad50 strain (AID 155);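 note: 0% = growth of vehicle-only cultures of the same strain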
- Condition Description: S. cerevisiae rad50 strain growth inhibition; at 50.0 µM (retest, dose inferred, filed as 5.0); active compounds read high
Compounds without any hit were thinned out: in the full panel of roughly 79,000, 15% have a hit.
Entry flag: Criterion met if growth inhibition reaches 60%; Criterion not met if it does not.

# example entries with known answers
Molecule	Answer Label
NS(=O)(=O)CCl.[Hg]	Criterion met
O=C(O)c1ccc([Se][Se]c2ccc(C(=O)O)cc2)cc1	Criterion met
NCCNCCNCCNCCN (tested in a mixture with another compound)	Criterion not met
O=C(O)C(O)(c1ccc(-c2ccccc2)cc1)c1ccc(-c2ccccc2)cc1	Criterion met
[C-]#[O+].[C-]#[O+].[Mo].c1ccc([PH+](CC[PH+](c2ccccc2)c2ccccc2)c2ccccc2)cc1.c1ccc([PH+](CC[PH+](c2ccccc2)c2ccccc2)c2ccccc2)cc1	Criterion met

Could you verify whether the entry COC(=O)c1ccc([As]=O)cc1N (stereo not drawn) shows growth inhibition of no less than 60%? Criterion not met

Could you verify whether the entry [pH]1p2[pH]p3p1p3[pH]2.c1cc[c]([Ge]([c]2ccccc2)[c]2ccccc2)cc1.c1cc[c]([Ge]([c]2ccccc2)[c]2ccccc2)cc1.c1cc[c]([Ge]([c]2ccccc2)[c]2ccccc2)cc1 shows growth inhibition of no less than 60%? Criterion met

* * *

Quick reference for growth inhibition among some compounds
- Protocol Text: NCI Yeast Anticancer Drug Screen. Data for the rad50 strain (AID 155);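 note: 0% = growth of vehicle-only cultures of the same strain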
- Condition Description: S. cerevisiae rad50 strain growth inhibition; at 5.0 µM (retest, dose inferred, filed as 0.5); active compounds read high
This is part of a sample that, as a whole, favours compounds with a hit. Of some 79,000 tested, about 15% had one in any assay.
Field: numeric (%). Do not append units.

Some solved entries appear below for comparison.
                                   compound   observation_type  value_measured
0  COC(=O)C1c2c(C)cc3n2C(C=CC3)C1C(=O)OC (stereo unspecified)  growth inhibition               7
1  CCC1(O)C(=O)OCc2c1cc1n(c2=O)Cc2cc3cc(C)ccc3nc2-1 (stereo unspecified)  growth inhibition              94
2         COc1cc(/C=C(/C)[N+](=O)[O-])ccc1O  growth inhibition              90
3  CC(=O)OC1=CC2=CC[C@H]3[C@@H]4CCC(=O)[C@@]4(C)CC(=O)[C@]3(S)[C@@]2(C)CC1  growth inhibition              14
4               C/C(=N/NC(N)=S)c1ccc(Cl)cc1  growth inhibition               9

Need growth inhibition of [O-][n+]1onc2c1-c1nonc1CC2 , thanks. 21

* * *

- Protocol Text: NCI Yeast Anticancer Drug Screen. Data for the mlh1 rad18 strain (AID 175)
- Condition Description: S. cerevisiae mlh1 rad18 strain growth inhibition; at 50.0 µM (retest, dose inferred, filed as 5.0); active compounds read high
- Description: Growth inhibition of yeast strains with defined genetic alterations is measured as a screen for potential anti-cancer activity. Selected strains with alterations in DNA damage repair or cell cycle control were exposed to compounds and growth inhibition was measured relative to vehicle treated controls. The strain used in this assay is mlh1 rad18
The panel holds about 79,000 compounds, 15% with a hit somewhere; the sample as a whole holds those more often. The source made the active and inactive calls. Cut-off read from the data, not from the text of the source: active = growth inhibition above about 70%; inactive = the rest.
Observation Type: growth inhibition

Some solved entries appear below for comparison.
In [3]: df
Out[3]:
                                   compound  value_measured
0  O=C([O-])C(F)(F)C(F)(F)F.[C-]#[O+].[C-]#[O+].[C-]#[O+].[C-]#[O+].[C-]#[O+].[Re]  10% (inactive)
1                                 N#CS.[Ag]    97% (active)

Now turn to the next compound.
Need growth inhibition of O=C(O)C(Br)C(Br)C(=O)O.[Ag] (stereo unspecified) , thanks. 99% (active)

* * *

- Protocol Text: NCI Yeast Anticancer Drug Screen. Data for the sgs1 mgt1 strain (AID 161);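 note: 0% = growth of cultures given vehicle only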
- Condition Description: S. cerevisiae sgs1 mgt1 strain, at 50.0 µM
About 79,000 compounds went through this panel and 15% of them were active in at least one assay; those are over-represented in the sample as a whole. Calls of active or inactive are those of the source. Cut-off read from the data, not from the text of the source: active = growth inhibition above about 70%; inactive = the rest.
The reply should be one of these categories: 1.0 = active, 0.0 = inactive

Compound	Answer Label
CCOC(=O)C1OC(C2(C)OC3(OC4(C=CC3O)OC(C(C)C(=O)C(C)C(O)C(C)CC(C)c3c(Cl)cc(C)c(O)c3C(=O)O)C(C)CC4C)C(C)C2OC)CC1O (stereo unspecified)	0.0
[C-]#[O+].[C-]#[O+].[C-]#[O+].[C-]#[O+].[W].c1ccc([PH+](CC[PH+](c2ccccc2)c2ccccc2)c2ccccc2)cc1	0.0
O.O.[NH-]C1(C(=O)O)CCCC1.[NH-]C1(C(=O)O)CCCC1.[Ni+2]	0.0
N#CC(C#N)=Cc1cccc(C=C(C#N)C#N)c1	0.0
O=C1C(C(Nc2ccccc2)c2ccccc2)=C([O-])c2ccccc21.O=C1C(C(Nc2ccccc2)c2ccccc2)=C([O-])c2ccccc21.[Cu+2] (stereo unspecified)	0.0

What did the test return for COC(=O)c1ccccc1NC(=O)C(=O)CC(=O)CC(c1ccccc1)c1c(O)c2ccccc2oc1=O (stereo unspecified) ? 0.0

What did the test return for O=c1oc2ccccc2c(O)c1C(c1cnc2ccccc2c1)c1c(O)c2ccccc2oc1=O ? 0.0

What did the test return for Nc1ccccc1C(=O)c1ccccc1 ? 0.0

What did the test return for O/N=C1\CN2CCC1CC2 ? 0.0

* * *

- Protocol Text: NCI Yeast Anticancer Drug Screen. Data for the rad50 strain (AID 155);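 note: 0% = growth of vehicle-only cultures of the same strain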
- Condition Description: S. cerevisiae rad50 strain growth inhibition; at 50.0 µM; active compounds read high
This is part of a sample that, as a whole, favours compounds with a hit. Of some 79,000 tested, about 15% had one in any assay.
Quick reference for growth inhibition among some molecules
Field: numeric (%). Do not append units.

Molecule	Units	growth inhibition
CC(C)OC(=S)S.[Cu+2]	%	-7

Need growth inhibition of Cc1nc2ccccc2[se]1 , thanks. -33.4

Need growth inhibition of O=Cc1ccccc1O.[Pr] , thanks. 29.1

* * *

- Protocol Text: NCI Yeast Anticancer Drug Screen. Data for the mec2-1 strain (AID 157)
- Condition Description: S. cerevisiae mec2-1 strain, at 5.0 µM (retest, dose inferred, filed as 0.5), active compounds read high
This is part of a sample that, as a whole, favours compounds with a hit. Of some 79,000 tested, about 15% had one in any assay.
Quick reference for growth inhibition among some compounds
Field: numeric (%). Do not append units.

Some solved entries appear below for comparison.
                                   compound   observation_type  units  value_measured
0       COc1cc(/C=C/[N+](=O)[O-])cc(Br)c1OC  growth inhibition      %              79
1               CN(C)CC1(N)C(=O)NC(=O)NC1=O  growth inhibition      %               4
2  O=[As](O)(O)c1ccc(Cc2ccc([As](=O)(O)O)cc2)cc1  growth inhibition      %              62
3  CCOC(=O)C1=C(C)/C(=C/c2[n-]c(C)c(C(=O)OCC)c2C)N=C1C.CCOC(=O)C1=C(C)/C(=C/c2[n-]c(C)c(C(=O)OCC)c2C)N=C1C.[Zn+2]  growth inhibition      %               2

Need growth inhibition of Nc1ccc(Br)cc1C(=O)c1ccccc1 , thanks. 11

Need growth inhibition of C[PH+](C)C.C[PH+](C)C.[Au] , thanks. 30

Need growth inhibition of COC(=O)C1ON(c2ccccc2)C2c3ccccc3-c3ccccc3C12 (configuration not stated) , thanks. 27

Need growth inhibition of C[CH2][Pb]([CH2]C)([CH2]C)[O]C(C)=O , thanks. 43

Need growth inhibition of C[CH2][Sn]([CH2]C)[O][Sn]([Cl])([CH2]C)[CH2]C , thanks. 35

Need growth inhibition of CC(=O)c1cc(CN(CCCl)CCCl)c(O)c(CN(CCCl)CCCl)c1O , thanks. -13

Need growth inhibition of COc1c(Cl)[c]([Hg][O]C(C)=O)c(NCC(C)=O)c(OC)[c]1[Hg][O]C(C)=O , thanks. 99

Need growth inhibition of Oc1c(Cl)cc(Cl)c2ccccc12 , thanks. 7

Need growth inhibition of Cc1cc(CCN)c(C)c2c1sc1ccccc12 , thanks. 92
